# STUDY_SYSTEM: C-X-C chemokine receptor type 4 (Homo sapiens, UniProt P61073)
# Sequence (P61073 whole entry): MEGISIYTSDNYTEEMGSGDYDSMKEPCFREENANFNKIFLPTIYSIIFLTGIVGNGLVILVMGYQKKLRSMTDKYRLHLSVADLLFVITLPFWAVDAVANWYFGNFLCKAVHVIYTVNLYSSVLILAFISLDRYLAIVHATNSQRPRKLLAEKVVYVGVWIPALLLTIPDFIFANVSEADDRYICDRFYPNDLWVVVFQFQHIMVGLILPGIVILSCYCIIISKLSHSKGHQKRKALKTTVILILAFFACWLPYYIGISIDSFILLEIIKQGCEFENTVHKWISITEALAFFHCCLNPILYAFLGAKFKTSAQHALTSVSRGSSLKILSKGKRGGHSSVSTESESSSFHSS
READOUT_TYPE: pIC50
The meaning of pIC50 here: minus log10 of the concentration in molar units.

What does the data say about its pIC50? Entry: "COc1cc(Cc2cnc(N)nc2N)cc2c(C)cc(C)nc12"
6.91

---

# STUDY_SYSTEM: Stromal cell-derived factor 1 (Homo sapiens, UniProt P48061)
# Sequence (P48061 whole entry): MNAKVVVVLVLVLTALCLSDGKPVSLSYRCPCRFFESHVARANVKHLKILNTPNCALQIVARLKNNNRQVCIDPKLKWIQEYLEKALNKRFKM
# MEASUREMENT_NOTES: Inhibition of SDF-1 alpha induced cell migration in human SUP-T1 cells pre-incubated for 30 mins followed by SDF-1 alpha addition measured after 3 hrs by cell Titer-96 reagent based analysis
READOUT_TYPE: pIC50
Keep in mind that pIC50 stands for -log10 of concentration in molar terms.

Value lookup for pIC50; key = CCOC(=O)C1CNc2c(OC)cc(Cc3cnc(N)nc3N)c(OC)c2C1 (stereo unspecified)
6.21

The origin of these recorded values is BindingDB's records for PubMed 32492596.
